# Tested on: Brown Dog Tick (Rhipicephalus sanguineus)
# assay: Rapid screening protocol for topical application on brown dog ticks
# Assay type: in vivo
# conditionLabel: 24 h; topical, 10 μg of active per tick in 1 μL acetone; adult ticks; Laboratory 1 E data
measuredParameter: Rhipicephalus sanguineus Mortality (%) 24 h
# include the unit after the value

O=S(=O)(Nc1ccc(Cl)cc1-c1ccon1)C(F)(F)F [Compound 293] | 80%
CCOCN(c1ccc(Cl)cc1/C(CC)=N/OCc1ccc(Cl)cc1)S(=O)(=O)C(F)(F)F [Compound 302] | 5%

## Task Can you look up the measured Rhipicephalus sanguineus Mortality (%) 24 h of CC(=O)N(c1ccc(Cl)cc1/C(C)=N/Oc1ccc(F)cc1)S(=O)(=O)C(F)(F)F [Compound 308] for me?
## Result 7%

----------
# Tested on: Brown Dog Tick (Rhipicephalus sanguineus)
# assay: Rapid screening protocol for topical application on brown dog ticks
# Format: in vivo
# conditionLabel: 48 h; Laboratory 2 F data
# Description: d) Rapid Screening Protocol for Topical Application on Brown Dog Ticks (Rhipicephalus sanguineus) The aim of the test was to determine the presence of significant acaricidal activity in sample compounds or formulations when applied topically on brown dog ticks. A tick was defined as dead if it gave no apparent response when touched lightly and observed for 1 minute. […] Both permethrin and fipronil were employed as reference compounds. […]
Form field: R. sanguineus Mortality (%) 48 h (one value per entry).
Write the number in % without appending the unit.

CC/C(=N\OCC1CCCO1)c1cc(Cl)ccc1NS(=O)(=O)C(F)(F)F (centres unmarked) | 100
CC/C(=N\Oc1ccc(Cl)cc1)c1cc(Cl)ccc1NS(=O)(=O)C(F)(F)F | 85
CC/C(=N\OCc1ccc(Cl)cc1)c1cc(Cl)ccc1NS(=O)(=O)C(F)(F)F | 97
C#CCO/N=C(\CC)c1cc(Cl)ccc1NS(=O)(=O)C(F)(F)F | 100
CC(C)/C(=N\Oc1ccc(Cl)cc1)c1cc(Cl)ccc1NS(=O)(=O)C(F)(F)F | 87
C/C(=N\OCC(F)(F)F)c1cc(Cl)ccc1NS(=O)(=O)C(F)(F)F | 100
C/C(=N\OCC1CCCCC1)c1ccc(C(F)(F)F)cc1NS(=O)(=O)C(F)(F)F | 30

Now consider a different compound.
## Task Can you look up the measured R. sanguineus Mortality (%) 48 h of O=S(=O)(Nc1ccc(Cl)cc1/C(=N/OCC1CCCCC1)C1CCCCC1)C(F)(F)F for me?
## Result 22

----------
# Tested on: cat flea (Ctenocephalides felis)
# assay: whole plant or invertebrate
# Format: in vivo
# conditionLabel: 24 h; Laboratory 2 B data
measuredParameter: C. felis Mortality (%) 24 h

Examples with answers:
CC/C(=N\OCCC(C)C)c1cc(Cl)ccc1NS(=O)(=O)C(F)(F)F | 96^B %
CO/N=C(\c1ccccc1)c1cc(Cl)ccc1NS(=O)(=O)C(F)(F)F [Compound 233] | 15^B %
CO/N=C(\c1ccccc1)c1cc(Cl)ccc1NS(=O)(=O)C(F)(F)F [Compound 232] | 96^B %
CCCO/N=C(\c1ccccc1)c1cc(Cl)ccc1NS(=O)(=O)C(F)(F)F [Compound 252] | 15^B %

Now consider a different compound.
## Task Can you look up the measured C. felis Mortality (%) 24 h of CCCO/N=C(\c1ccccc1)c1cc(Cl)ccc1NS(=O)(=O)C(F)(F)F [Compound 251] for me?
## Result 32^B %

----------
# System: cat flea (Ctenocephalides felis)
# assay: Ctenocephalides felis adulticide assay: dose response (LC50)
# Format: in vivo
# conditionLabel: Laboratory 1 C data
Everything with C. felis LC50 lower than 0.2 μg/cm^2 is no; everything else, including exactly 0.2 μg/cm^2, is yes.

CC/C(=N\Oc1cccc(Cl)c1)c1cc(Cl)ccc1NS(=O)(=O)C(F)(F)F [Compound 131] | yes

## Task Hello, I need to know if CCO/N=C(\c1ccccc1)c1cc(Cl)ccc1NS(=O)(=O)C(F)(F)F [Compound 178] has measured C. felis LC50 not below 0.2 μg/cm^2. Thanks!
## Result yes

## Task Okay, and C=CCO/N=C(\CC)c1cc(Cl)ccc1NS(=O)(=O)C(F)(F)F [Compound 156] ?
## Result yes

## Task Okay, and C/C(=N\OC1CCCC1)c1cc(Cl)ccc1NS(=O)(=O)C(F)(F)F [Compound 163] ?
## Result no

----------
Form field: C. felis LC50 (one value per entry).
# Tested on: cat flea (Ctenocephalides felis)
# assay: Ctenocephalides felis adulticide assay: dose response (LC50)
# Format: in vivo
# conditionLabel: Laboratory 2 D data

Examples with answers:
CC/C(=N\OCC1CCCO1)c1cc(Cl)ccc1NS(=O)(=O)C(F)(F)F (stereo not drawn) | 0.02^D μg/cm^2
CCC/C(=N\OCC)c1cc(Cl)ccc1NS(=O)(=O)C(F)(F)F | 0.01^D μg/cm^2

## Task Form: Entry = C=CCO/N=C(\CC)c1cc(Cl)ccc1NS(=O)(=O)C(F)(F)F | System = cat flea (Ctenocephalides felis) | C. felis LC50 = ____
## Result 0.02 μg/cm^2

----------
# System: cat flea (Ctenocephalides felis)
# assay: whole plant or invertebrate
# Type: in vivo
# conditionLabel: Ctenocephalides felis, 48 h, read-out: C. felis Mortality (%) 48 h, 48 h; Laboratory 2 B data
measuredParameter: mortality at 1.26 µg/cm2, 1.26 µg/cm2

Examples with answers:
CO/N=C(\c1ccccc1)c1cc(Cl)ccc1NS(=O)(=O)C(F)(F)F [Compound 232] | 100%
CCCO/N=C(\c1ccccc1)c1cc(Cl)ccc1NS(=O)(=O)C(F)(F)F [Compound 251] | 100%
CCCCO/N=C(\C)c1cc(Cl)ccc1NS(=O)(=O)C(F)(F)F [Compound 244] | 100%
C/C(=N\OC1C=CCCC1)c1ccc(C(F)(F)F)cc1NS(=O)(=O)C(F)(F)F (stereo not drawn) [Compound 238] | 84%
CC/C(=N\OCC=C(C)C)c1cc(Cl)ccc1NS(=O)(=O)C(F)(F)F [Compound 250] | 100%
CC(C)=CCO/N=C(\C)c1cc(Cl)ccc1NS(=O)(=O)C(F)(F)F [Compound 249] | 100%
C/C(=N\OCCC(C)C)c1cc(Cl)ccc1NS(=O)(=O)C(F)(F)F [Compound 246] | 100%
CCC(CC)O/N=C(\C)c1ccc(C(F)(F)F)cc1NS(=O)(=O)C(F)(F)F [Compound 236] | 100%
C/C(=N\OC1CCCC1)c1ccc(C(F)(F)F)cc1NS(=O)(=O)C(F)(F)F [Compound 239] | 100%
C/C(=N\OC1CCCCC1)c1ccc(C(F)(F)F)cc1NS(=O)(=O)C(F)(F)F [Compound 237] | 36%

## Task Form: Entry = C/C(=N\OC(C)C)c1ccc(C(F)(F)F)cc1NS(=O)(=O)C(F)(F)F [Compound 235] | System = cat flea (Ctenocephalides felis) | mortality at 1.26 µg/cm2, 1.26 µg/cm2 = ____
## Result 100%

## Task Okay, and C/C(=N\OCC(C)C)c1ccc(C(F)(F)F)cc1NS(=O)(=O)C(F)(F)F [Compound 240] ?
## Result 98%

## Task Okay, and COCCON=C(c1ccccc1)c1cc(Cl)ccc1NS(=O)(=O)C(F)(F)F (racemic) [Compound 234] ?
## Result 100%

## Task Okay, and C/C(=N\OC(C)C1CC1)c1cc(Cl)ccc1NS(=O)(=O)C(F)(F)F (stereo not drawn) [Compound 253] ?
## Result 100%

## Task Okay, and CCC(C)O/N=C(\C)c1cc(Cl)ccc1NS(=O)(=O)C(F)(F)F (stereo not drawn) [Compound 242] ?
## Result 100%

----------
# Test system: Brown Dog Tick (Rhipicephalus sanguineus)
# assay: Rapid screening protocol for topical application on brown dog ticks
# Format: in vivo
# conditionLabel: 48 h; Laboratory 2 F data
Form field: R. sanguineus Mortality (%) 48 h (one value per entry).
Write the number in % without appending the unit.

Examples with answers:
C=CCO/N=C(\CC)c1cc(Cl)ccc1NS(=O)(=O)C(F)(F)F | 95
C/C(=N\Oc1ccc(F)cc1)c1ccc(C(F)(F)F)cc1NS(=O)(=O)C(F)(F)F | 17
O=S(=O)(Nc1ccc(Cl)cc1/C(=N/OC1CCCCC1)C1CCCCC1)C(F)(F)F | 57
CCO/N=C(/c1cc(Cl)ccc1NS(=O)(=O)C(F)(F)F)C1CCCCC1 | 90
C/C(=N\OC(C)(C)C)c1cc(Cl)ccc1NS(=O)(=O)C(F)(F)F | 97
CC/C(=N\Oc1ccc(Cl)cc1)c1ccc(C(F)(F)F)cc1NS(=O)(=O)C(F)(F)F | 22
CC/C(=N\Oc1ccc(F)cc1)c1cc(Cl)ccc1NS(=O)(=O)C(F)(F)F | 100
CC/C(=N\OCc1ccc(Br)cc1)c1cc(Cl)ccc1NS(=O)(=O)C(F)(F)F | 77

## Task Can you look up the measured R. sanguineus Mortality (%) 48 h of C/C(=N\Oc1cccc(Cl)c1)c1cc(Cl)ccc1NS(=O)(=O)C(F)(F)F for me?
## Result 80

## Task Okay, and C/C(=N\OCc1ccc(C(F)(F)F)cc1)c1ccc(C(F)(F)F)cc1NS(=O)(=O)C(F)(F)F ?
## Result 60

## Task Okay, and CC/C(=N\OCc1cccnc1)c1cc(Cl)ccc1NS(=O)(=O)C(F)(F)F ?
## Result 52

## Task Okay, and C#CCO/N=C(\C)c1cc(Cl)ccc1NS(=O)(=O)C(F)(F)F ?
## Result 100
